system: Leishmania donovani; test: GSK_TCAKS: pIC50 Leishmania donovani viability assay using fluorescence intensity. Assay plates (1536-well) were prepared by adding 30nL per well of compound. For single shot assay, the final compound concentration was 5uM. […] Briefly, eGFP LdBOB axenic amastigotes were harvested, fixed and counted in a CASY cell counter (Roche-Applied Science). A final concentration of 1.5 * 10^5 cells per well were prepared in amastigote media containing 500 U/mL penicillin/streptomycin (Invitrogen) and 6uL was dispensed to each experimental well using a Multidrop Combi dispenser (Thermo Scientific). 6uL of assay media was dispensed to control columns used as reference for 100% compound response. Following incubation for 72 h at 37C, 5% CO2, 2 uL of resazurin was added to each well at a final concentration of 0.5 mM in phosphate buffered saline (PBS) with IGEPAL (Sigma-Aldrich), 0.05% (v/v).; assay type: functional, organism-based
pIC50: −log10 of the molar value.
pIC50 values, listed per item

{"columns": ["compound", "relation qualifier", "pIC50"],
 "data": [
  ["Cn1nc(C(=O)N2CCc3ccccc32)c2c1CCS(=O)(=O)C2", "=", 5.40],
  ["O=C(c1ccccc1)N1CCC(C(=O)N2CCC(Oc3ccccc3Cl)CC2)CC1", "<", 4.30],
  ["CCN(Cc1ccncc1)Cc1ccc(NC(=O)c2cc(-c3ccc(F)cc3)n[nH]2)cc1", "=", 4.80],
  ["Cc1nnnn1-c1cccc(C(=O)N2CCC[C@@]3(C)c4ncncc4CCC23)c1 (some centres not stated)", "=", 6.40],
  ["COc1cc(C(C)C)c(S(C)(=O)=O)cc1C(=O)N1CCN(c2ccccc2Cl)CC1", "=", 5.30],
  ["COc1ccc(C(=O)[C@H]2C[C@@H]2CN(Cc2ccccn2)Cc2ccccn2)cc1", "=", 5.10],
  ["CCc1cc(C(=O)Nc2nccn2-c2ccccc2)cs1", "=", 5.20],
  ["CS(=O)(=O)c1ccc(Nc2nccc(-c3cnn4ncccc34)n2)cc1", "=", 6.10],
  ["COc1ccc(C(=O)Nc2cc(C(F)(F)F)ccc2N2CCOCC2)c(OC)c1", "=", 5.30],
  ["CC(=O)Nc1ccc(CN2CCC(N3CC(c4ccccc4)(c4ccccc4)OCC3=O)CC2)cc1", "=", 6.30],
  ["COc1ccc2nccc([C@H](O)CN3CC[C@H](NC(=O)c4ccc(Br)cc4)[C@@H](O)C3)c2n1", "=", 5.50],
  ["CC1CCCCN1C(=O)NCCc1coc(-c2ccc(F)cc2)n1 (configuration not stated)", "<", 4.30],
  ["O=C(Nc1nc(-c2ccccn2)cs1)c1ccccc1-n1cnnn1", "=", 5.50],
  ["N#Cc1cc(-c2ccnc(Nc3cccc(CN4CCOCC4)c3)n2)ccc1NCCN", "=", 5.40],
  ["Oc1nccc2ccc(-c3ccncc3)cc12", "<", 4.30],
  ["c1ccc2sc(Nc3nc4ncccc4[nH]3)nc2c1", "=", 5.80],
  ["CNc1cncc(C2CCCN2C(=O)Cc2coc3cc(C)ccc23)n1 (configuration not stated)", "=", 5.50],
  ["COc1ccc2ncc(F)c(CCN3CC[C@@H](NC(=O)c4cc5c(s4)CCC5)[C@@H](O)C3)c2n1", "=", 6.00],
  ["CCOc1ccc(N(C)S(=O)(=O)c2ccc3[nH]cc(C(=O)NC4CCCC4)c(=O)c3c2)cc1", "<", 4.30],
  ["Nc1nc(-c2ccccn2)nc(N)c1Cc1c(F)cccc1Cl", "=", 5.60],
  ["CN(Cc1ccccc1)Cc1nnnn1C1CCN(Cc2ccc(-n3ccnc3)cc2)CC1", "<", 4.30],
  ["COc1ccccc1C(=O)Nc1nnc(-c2ccc3c(c2)OCO3)s1", "=", 6.00],
  ["CN(Cc1ccc(F)cc1)c1ccc(OCC(=O)N2CCCCC2c2cccnc2)nn1 (configuration not stated)", "=", 4.80],
  ["Cc1ccc(C)c(-n2nnnc2Sc2nc([N+](=O)[O-])nn2C)c1", "<", 4.30],
  ["CC(c1ccccn1)N(C)Cc1nc2ccccc2n1C(C)C (configuration not stated)", "=", 5.00],
  ["Nc1nccc(-c2csc(Nc3ccc(Cl)cc3)n2)n1", "=", 5.40],
  ["COc1ccc(NS(=O)(=O)c2cc(-c3cc(C)n[nH]3)ccc2C)cc1OC", "=", 6.00],
  ["Cc1nn(-c2ccccc2)nc1CNC(=O)CN(Cc1ccccn1)Cc1ccccn1", "=", 5.10],
  ["O=S(=O)(NCC(c1cccnc1)N1CCN(c2ccccc2F)CC1)c1ccc(F)cc1 (configuration not stated)", "=", 5.40],
  ["O=C(O)[C@H]1C[C@@H]1c1ccc(-c2ccc(CN(CCc3ccccn3)C(=O)C3CCC3)cc2)cc1", "=", 4.60],
  ["c1ccc(-c2nc(NCc3ccco3)c3ccccc3n2)nc1", "=", 5.50],
  ["NC(=O)c1ccc(-c2cccc(OCCN3CCN(C4CCCCC4)CC3)c2)cc1", "<", 4.30],
  ["Cc1nnc(-c2nc(NCc3ccc(Cl)cc3)c3cccnc3c2O)[nH]1", "=", 5.70],
  ["Cc1ccc(-c2csc(NC(=O)C=Cc3ccc(S(=O)(=O)N4CCOCC4)cc3)n2)o1", "=", 5.20],
  ["N#Cc1cccc(Nc2nccc(N3CCC(NS(=O)(=O)c4cccc(C#N)c4)CC3)n2)c1", "=", 6.20],
  ["CC(C)Nc1nc(Cl)nc2ccccc12", "=", 4.70],
  ["COc1ccc(S(=O)(=O)Nc2ccccc2OC)cc1NC(=O)CCCc1c[nH]c2ccccc12", "=", 4.60],
  ["N#Cc1ccc(S(=O)(=O)N2CCC3(CCN(c4ccccc4)C3=O)CC2)cc1", "<", 4.30],
  ["O=C(CC1(O)C(=O)N(Cc2cccs2)c2ccc(Br)cc21)c1cccnc1 (configuration not stated)", "<", 4.30],
  ["O=C(Cc1ccc2c(c1)CCC2)Nc1nnc(-c2ccccn2)[nH]1", "=", 5.10],
  ["COC(=O)c1ccc(-c2cnc3ccc(NCc4ccccn4)nn23)cc1", "=", 4.90],
  ["CC(C(=O)Nc1ccccc1F)N(C)CC(=O)Nc1cccc2ccccc12 (configuration not stated)", "=", 4.30]
]}
